Target: CD3ε homodimer protein (human, UniProt P07766 23-126, limits assumed)
Sequence (P07766 23-126 limits assumed): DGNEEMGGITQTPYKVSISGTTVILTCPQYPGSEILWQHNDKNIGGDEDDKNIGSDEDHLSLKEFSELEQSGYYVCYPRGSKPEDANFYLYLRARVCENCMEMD
Assay: SPR, immobilized CD3ε homodimer;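 also: biacore T200 surface plasmon resonance at 25 °C, antibody variants flowed as analytes over amine-coupled CD3ε homodimer on a CM4 chip, variant binding amount divided by that of GLS3000 antibody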
Recorded ratio of amounts bound (vs GLS3000) values for a group of binders are listed next.
// return a plain number; no unit text

Some entries whose results are on file:
// Input: GLS3000 H27dV (antibody, name in Kabat numbering, V domains shown, one-arm format as m2) VH: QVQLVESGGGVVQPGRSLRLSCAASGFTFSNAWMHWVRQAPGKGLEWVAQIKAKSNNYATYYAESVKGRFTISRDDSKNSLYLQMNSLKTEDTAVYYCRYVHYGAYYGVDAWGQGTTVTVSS VL: DIVMTQSPLSLPVTPGEPASISCRSSQSLVVSNRNTYLHWYQQKPGQAPRLLIYKVSNRFSGVPDRFSGSGSGTDFTLKISRVEAEDVGVYYCGQGTQVPYTFGQGTKLEIK . Output its ratio of amounts bound (vs GLS3000) only.
0.3

Look up and report measured ratio of amounts bound (vs GLS3000) for this entry: GLS3000 V94H (antibody, name in Kabat numbering, V domains shown, one-arm format as m2) VH: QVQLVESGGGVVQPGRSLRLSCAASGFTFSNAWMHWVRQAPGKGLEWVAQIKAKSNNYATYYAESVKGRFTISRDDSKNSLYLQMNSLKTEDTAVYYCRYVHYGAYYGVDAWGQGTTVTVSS VL: DIVMTQSPLSLPVTPGEPASISCRSSQSLVHSNRNTYLHWYQQKPGQAPRLLIYKVSNRFSGVPDRFSGSGSGTDFTLKISRVEAEDVGVYYCGQGTQHPYTFGQGTKLEIK
0.78

Look up and state reported ratio of amounts bound (vs GLS3000) for GLS3000 S56G (antibody, name in Kabat numbering, V domains shown, one-arm format as m2) VH: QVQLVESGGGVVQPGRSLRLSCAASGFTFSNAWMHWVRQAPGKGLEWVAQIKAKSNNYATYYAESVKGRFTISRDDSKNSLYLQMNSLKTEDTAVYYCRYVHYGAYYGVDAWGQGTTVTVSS VL: DIVMTQSPLSLPVTPGEPASISCRSSQSLVHSNRNTYLHWYQQKPGQAPRLLIYKVSNRFGGVPDRFSGSGSGTDFTLKISRVEAEDVGVYYCGQGTQVPYTFGQGTKLEIK
0.92

***
Report ratio of amounts bound (vs GLS3000), nothing else, for this binder: GLS3000 S27aN (antibody, name in Kabat numbering, V domains shown, one-arm format as m2) VH: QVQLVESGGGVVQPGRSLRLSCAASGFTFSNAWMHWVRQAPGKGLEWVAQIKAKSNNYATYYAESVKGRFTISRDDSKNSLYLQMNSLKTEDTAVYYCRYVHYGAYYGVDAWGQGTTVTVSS VL: DIVMTQSPLSLPVTPGEPASISCRSSQNLVHSNRNTYLHWYQQKPGQAPRLLIYKVSNRFSGVPDRFSGSGSGTDFTLKISRVEAEDVGVYYCGQGTQVPYTFGQGTKLEIK
1.1

Please indicate ratio of amounts bound (vs GLS3000) recorded for GLS3000 S27eG (antibody, name in Kabat numbering, V domains shown, one-arm format as m2) VH: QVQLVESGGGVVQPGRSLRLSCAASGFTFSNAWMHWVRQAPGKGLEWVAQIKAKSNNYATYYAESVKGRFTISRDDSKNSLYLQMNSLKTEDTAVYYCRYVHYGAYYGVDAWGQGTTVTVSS VL: DIVMTQSPLSLPVTPGEPASISCRSSQSLVHGNRNTYLHWYQQKPGQAPRLLIYKVSNRFSGVPDRFSGSGSGTDFTLKISRVEAEDVGVYYCGQGTQVPYTFGQGTKLEIK
1.04

This collection of values is drawn from patent US20220040297A1.
